Study Target: T1, Cytochrome f (soluble form, subunit of the cytochrome b 6 f complex) (Nostoc sp. PCC 7119, UniProt Q93SW9 45-298, heme group; reduced for ITC)
T1 chain: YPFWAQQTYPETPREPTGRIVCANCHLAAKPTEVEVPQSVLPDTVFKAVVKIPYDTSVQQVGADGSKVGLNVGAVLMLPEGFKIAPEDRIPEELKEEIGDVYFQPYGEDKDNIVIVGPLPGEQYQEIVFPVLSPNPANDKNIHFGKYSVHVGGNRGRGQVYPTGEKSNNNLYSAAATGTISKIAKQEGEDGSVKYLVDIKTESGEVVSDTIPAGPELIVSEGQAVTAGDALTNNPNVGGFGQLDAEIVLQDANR
Assay Protocol: ITC
Listing of recorded Kd by entry.
The response must be a number in µM with no trailing unit.

In the examples that follow, each entry is paired with its recorded Kd.
{"columns": ["Binder", "Kd (µM)"],
 "data": [
  ["Cytochrome c 6 (natural protein, Nostoc sp. PCC 7119, UniProt P0A3X8 26-111, looked up, heme group; oxidised for ITC, Cytochrome c6 (petJ) of Nostoc sp; PCC 7119; also called Cyt c 6; source: E. coli co-transformed with pEC86, extracted from the periplasmic fraction, purified (ion exchange chromatography)) ADSVNGAKIFSANCASCHAGGKNLVQAQKTLKKADLEKYGMYSAEAIIAQVTNGKNAMPAFKGRLKPEQIEDVAAYVLGKADADWK", 13],
  ["Cytochrome c 6D (natural protein, heme group; oxidised for ITC) AELPTGAKIFNNNCASCHIGGGNILISEKTLKKEALLKYLEDYETNSIQAIIHQIQYGKNAMPAFKDKLSTEEILEVAAYIFQKAEKDWSNLEKEG", 2]
]}

Please turn your attention to the following entry.
Exercise: Would you mind telling me what Kd value was observed for Cytochrome c 6BC (natural protein, heme group; oxidised for ITC) ENTINGEQIFSVHCAGCHINGSNIIRRGKNLQKKTLKKYGMDSLEAIEAIVTNGKNNMSAYKDRLSEQEIQDVAAYVLEQAEKGWR ?
Solution: 11
